System: ncRNAs (SEQ ID NO 28-89)
Assay: ncRNA arrays of melanocytes, keratinocytes, normal skin, melanoma cell lines and patient samples
Parameters: species or system human
Conditions: melanoma patient 5 sample compared to normal skin
Description: An ncRNA array platform that contains over 10,000 putative (>200 nt) ncRNAs including most of the known ncRNAs in mouse and human was conducted to evaluate ncRNAs within melanoma. Lack of coding potential was estimated by an algorithm that scores various characteristics of protein-coding genes, including open reading frame length, synonymous/non-synonymous base substitution rates and similarity to known proteins. […]
Mark t only for ncRNA array expression, patient 5 values smaller than -1; exact matches and larger values are f.

Use these answered entries as a reference point.
{"substance": "SEQ ID NO 59 (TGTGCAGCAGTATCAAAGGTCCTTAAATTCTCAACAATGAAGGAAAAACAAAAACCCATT; listed as DNA, chemistry not given here; listed as Homo sapiens)", "qualitative-label": "t"}
{"substance": "SEQ ID NO 49 (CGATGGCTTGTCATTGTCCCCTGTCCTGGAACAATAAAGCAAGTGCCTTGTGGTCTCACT; listed as DNA, chemistry not given here; listed as Homo sapiens)", "qualitative-label": "t"}
{"substance": "SEQ ID NO 82 (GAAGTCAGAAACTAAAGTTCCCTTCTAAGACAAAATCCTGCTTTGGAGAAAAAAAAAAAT; listed as DNA, chemistry not given here; listed as Homo sapiens)", "qualitative-label": "t"}
{"substance": "SEQ ID NO 72 (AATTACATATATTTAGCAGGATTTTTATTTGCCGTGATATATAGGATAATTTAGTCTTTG; listed as DNA, chemistry not given here; listed as Homo sapiens)", "qualitative-label": "f"}
{"substance": "SEQ ID NO 56 (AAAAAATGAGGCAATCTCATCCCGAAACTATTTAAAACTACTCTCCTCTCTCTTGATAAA; listed as DNA, chemistry not given here; listed as Homo sapiens)", "qualitative-label": "t"}

Report whether reported ncRNA array expression, patient 5 is lower than -1 (strictly) for SEQ ID NO 61 (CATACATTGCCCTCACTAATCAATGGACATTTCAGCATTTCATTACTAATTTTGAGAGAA; listed as DNA, chemistry not given here; listed as Homo sapiens)
f

Report whether reported ncRNA array expression, patient 5 is lower than -1 (strictly) for SEQ ID NO 44 (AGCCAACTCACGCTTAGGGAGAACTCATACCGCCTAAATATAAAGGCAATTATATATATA; listed as DNA, chemistry not given here; listed as Homo sapiens)
t

Report whether reported ncRNA array expression, patient 5 is lower than -1 (strictly) for SEQ ID NO 75 (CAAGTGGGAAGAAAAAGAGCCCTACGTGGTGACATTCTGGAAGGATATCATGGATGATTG; listed as DNA, chemistry not given here; listed as Homo sapiens)
f

Report whether reported ncRNA array expression, patient 5 is lower than -1 (strictly) for SEQ ID NO 63 (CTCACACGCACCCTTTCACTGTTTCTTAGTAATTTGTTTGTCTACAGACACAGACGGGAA; listed as DNA, chemistry not given here; listed as Homo sapiens)
t

----------
Tested on: ncRNAs (SEQ ID NO 28-89)
Assay: ncRNA arrays of melanocytes, keratinocytes, normal skin, melanoma cell lines and patient samples
Parameters: species or system human
Conditions: melanoma patient 23 sample compared to normal skin
value-type: ncRNA array expression, patient 23
// no unit, no text: just the number

Reference set (5 entries):
{"substance": "SEQ ID NO 52 (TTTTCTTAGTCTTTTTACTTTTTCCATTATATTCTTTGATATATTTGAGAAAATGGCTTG; listed as DNA, chemistry not given here; listed as Homo sapiens)", "reported": "−0.706"}
{"substance": "SEQ ID NO 31 (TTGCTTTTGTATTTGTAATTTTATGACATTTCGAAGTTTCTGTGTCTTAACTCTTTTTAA; listed as DNA, chemistry not given here; listed as Homo sapiens)", "reported": 2.86}
{"substance": "SEQ ID NO 35 (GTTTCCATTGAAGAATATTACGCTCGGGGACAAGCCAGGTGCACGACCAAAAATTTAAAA; DNA, backbone and methylation of C not given here; listed as Homo sapiens)", "reported": 2.729}
{"substance": "SEQ ID NO 60 (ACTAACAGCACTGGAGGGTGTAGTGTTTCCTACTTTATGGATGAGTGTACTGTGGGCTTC; listed as DNA, chemistry not given here; listed as Homo sapiens)", "reported": 1.416}
{"substance": "SEQ ID NO 71 (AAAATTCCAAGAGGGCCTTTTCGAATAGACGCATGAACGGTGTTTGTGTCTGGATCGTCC; listed as DNA, chemistry not given here; listed as Homo sapiens)", "reported": 0.258}

Item SEQ ID NO 80 (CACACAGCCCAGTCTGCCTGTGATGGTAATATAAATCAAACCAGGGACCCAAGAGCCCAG; listed as DNA, chemistry not given here; listed as Homo sapiens) with ncRNAs (SEQ ID NO 28-89) - ncRNA array expression, patient 23?
−0.1143

Item SEQ ID NO 30 (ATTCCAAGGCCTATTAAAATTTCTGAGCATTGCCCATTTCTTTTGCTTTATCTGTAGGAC; DNA, backbone and methylation of C not given here; listed as Homo sapiens) with ncRNAs (SEQ ID NO 28-89) - ncRNA array expression, patient 23?
0.3079

Item SEQ ID NO 54 (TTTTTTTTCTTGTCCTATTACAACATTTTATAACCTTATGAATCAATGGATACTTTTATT; listed as DNA, chemistry not given here; listed as Homo sapiens) with ncRNAs (SEQ ID NO 28-89) - ncRNA array expression, patient 23?
0.7631

Item SEQ ID NO 28 (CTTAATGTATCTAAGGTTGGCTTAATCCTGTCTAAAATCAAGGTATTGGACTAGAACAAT; DNA, backbone and methylation of C not given here; listed as Homo sapiens) with ncRNAs (SEQ ID NO 28-89) - ncRNA array expression, patient 23?
2.286

Item SEQ ID NO 70 (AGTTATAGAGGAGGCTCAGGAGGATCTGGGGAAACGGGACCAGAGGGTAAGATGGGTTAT; listed as DNA, chemistry not given here; listed as Homo sapiens) with ncRNAs (SEQ ID NO 28-89) - ncRNA array expression, patient 23?
−0.7876

Item SEQ ID NO 68 (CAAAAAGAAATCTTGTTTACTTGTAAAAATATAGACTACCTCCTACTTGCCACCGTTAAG; listed as DNA, chemistry not given here; listed as Homo sapiens) with ncRNAs (SEQ ID NO 28-89) - ncRNA array expression, patient 23?
−0.7105

Item SEQ ID NO 63 (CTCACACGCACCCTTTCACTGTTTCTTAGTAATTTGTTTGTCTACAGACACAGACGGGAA; listed as DNA, chemistry not given here; listed as Homo sapiens) with ncRNAs (SEQ ID NO 28-89) - ncRNA array expression, patient 23?
−0.04699
